- assay.comment: small-molecule binders of probe aInhba, primary screen, biochemical, small-molecule microarray, 635/667 nm fluorescence (AID 1148);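 note: score merges 667nm spot fluorescence with signal-to-noise for antibody binding to printed compounds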
- condition: higher = more signal
Hi, to clarify the labels: satisfied covers composite z-score from 0.1 upward, not satisfied covers anything below 0.1.

QUERY: State whether the measured composite z-score reaches 0.1, counting equality as reaching it, for "CC(C)(C)OC(=O)CC[C@]1(C(=O)NCc2ccccc2)N=C(c2ccc(OCCCO)cc2)O[C@H]1c1ccccc1"
RESULT: satisfied

QUERY: Hi team, for "COc1ccc(CCNC(=O)[C@@H]2c3ccccc3C(=O)N(c3ccc(C)cn3)[C@H]2c2ccc(CO)cc2)cc1" , is the recorded composite z-score at or above 0.1?
RESULT: not satisfied

QUERY: composite z-score >= 0.1 for "COc1ccc(O[C@H]2C=C[C@@H](c3ccccc3)O[C@@H]2COC(=O)N2CCCCC2)cc1" ?
RESULT: not satisfied

QUERY: Check the entry Cc1cc2c(nc1C)CCCN2CC(C)ON=C1[C@H]2CCn3c(=O)n(-c4ccccc4)c(=O)n3[C@H]2[C@H](O)[C@@H]2O[C@H]12 (stereo partly drawn) : does composite z-score equal or exceed 0.1?
RESULT: not satisfied

QUERY: Does the molecule "CC(C)[C@@H](OCc1ccccc1)[C@H](C)C=NO[C@H](C)c1cn([C@H](CO)Cc2ccccc2)nn1" have recorded composite z-score that is 0.1 or more?
RESULT: not satisfied

QUERY: Quick check, composite z-score >= 0.1? CC(C)N1CC=CC23O[C@@H]4C=CCCOC(=O)C4[C@H]2C(=O)N(CCCCCCO)[C@@H]3C1=O (stereo partly drawn)
RESULT: not satisfied

QUERY: Does composite z-score meet or surpass 0.1 for CC1CC/C=C\[C@H]2OC34C=CCN(C(C)C)C(=O)[C@H]3N(CCCO)C(=O)[C@@H]4C2C(=O)O1 (stereo partly drawn) ?
RESULT: not satisfied

QUERY: Can "CO[C@H]([C@@H](C)[C@H](OC)c1ccccc1)[C@H](C)[C@@H](OC)[C@H](C)C(C)=O" be said to have composite z-score at or above 0.1?
RESULT: satisfied

###

- assay.comment: basal S. cerevisiae growth modulation, no modifier, primary screen, OD600, strain BY4716, 24 h, basal condition (AID 1173)
- condition: OD600, 24 h, higher = more signal, called active from +8 up or from −8 down
Please respond with reported z-score for every item in the list.
Reply with just the number.

QUERY: Identify z-score associated with the compound "C[C@H](c1ccccc1)N1C(=O)[C@H]2[C@@H]3C(=CC[C@H]2C1=O)C(=O)[C@H]1O[C@H]1[C@H]3O"
RESULT: -3.82

QUERY: Give recorded z-score. "COc1ccc(OC[C@H]2Cc3c(-c4ccccc4)nc4c(c3CO2)CN(CCOc2ccccc2)CC4)cc1"
RESULT: -2.37

QUERY: Given the compound CC(C)(C)N1CC=CC23O[C@@H]4C=CCCOC(=O)C4[C@H]2C(=O)N(CCCCCO)[C@@H]3C1=O (stereo partly drawn) , write its reported z-score.
RESULT: -0.312

QUERY: Report measured z-score; entry is "Cn1c(=O)n2n(c1=O)[C@H]1[C@H](O)[C@@H]3O[C@@H]3C(=NOC[C@@H](O)COCc3ccco3)[C@H]1CC2"
RESULT: -0.419

QUERY: Output measured z-score for this item: "O=C1[C@H]2[C@H]3[C@H](O)[C@H](O)CC(=NOCc4ccccc4)[C@@H]3CC[C@H]2C(=O)N1C1CCCCC1"
RESULT: -3.16

QUERY: Query z-score for O[C@@H](Cc1ccccc1)[C@H]1C2C=CCCC(c3ccccc3)=C2CN1Cc1cccc(Cl)c1 (stereo partly drawn)
RESULT: -3.75

QUERY: Name the recorded z-score of the compound listed here: "COc1ccc(O[C@H]2C=C[C@@H](c3ccccc3)O[C@@H]2COC(=O)CCC(C)=NOC[C@@H](C)[C@H](OCc2ccccc2)C(C)C)cc1"
RESULT: 0.445

QUERY: Look up z-score of "CN1C(=O)[C@@]2(CCC(=O)OC(C)(C)C)N=C(c3ccc(OCCCO)cc3)O[C@H]2c2ccccc21" and report it.
RESULT: -1.04

Source: PubChem BioAssay
